Value source: the supplement of paper PMC8728848

Molecular target: Gal(b1-4)GlcNAc(b1-3)Gal(b1-4)GlcNAc(b1-3)Gal(b1-4)GlcNAc(b1-3)Gal(b1-4)GlcNAc(b1-3)Gal(b1-4)GlcNAc(b1-2)Man(a1-3)[Gal(b1-4)GlcNAc(b1-3)Gal(b1-4)GlcNAc(b1-3)Gal(b1-4)GlcNAc(b1-3)Gal(b1-4)GlcNAc(b1-3)Gal(b1-4)GlcNAc(b1-2)Man(a1-6)]Man(b1-4)GlcNAc(b1-4)GlcNAc
Assay: glycan array binding signal (z-score within array); higher = stronger binding
Conditions: glycan notation: IUPAC condensed, linker removed
The full list was thinned out, with the strongest signals kept by preference.
VALUE_KIND: glycan array binding signal (z-score)
Number only, please.

Prompt line: Consider the binder Mermaid1 (Stilbonema majum) (protein) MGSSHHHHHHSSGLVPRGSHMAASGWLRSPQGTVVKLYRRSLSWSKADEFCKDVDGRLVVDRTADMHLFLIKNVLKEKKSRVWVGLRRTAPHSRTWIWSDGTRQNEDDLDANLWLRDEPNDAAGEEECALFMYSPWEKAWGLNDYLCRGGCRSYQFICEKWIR . State its measured glycan array binding signal (z-score).
Response line: 0.715

Prompt line: Return value of glycan array binding signal (z-score) for input EULS2 M4 (Oryza sativa) (protein) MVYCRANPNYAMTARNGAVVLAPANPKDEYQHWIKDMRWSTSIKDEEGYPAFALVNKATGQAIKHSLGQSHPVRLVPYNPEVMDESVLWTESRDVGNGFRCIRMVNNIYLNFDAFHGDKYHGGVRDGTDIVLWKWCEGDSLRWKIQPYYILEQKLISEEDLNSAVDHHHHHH , no commentary.
Response line: -0.273

Prompt line: State its glycan array binding signal (z-score): Gal 3C (Homo sapiens), P17931 (protein) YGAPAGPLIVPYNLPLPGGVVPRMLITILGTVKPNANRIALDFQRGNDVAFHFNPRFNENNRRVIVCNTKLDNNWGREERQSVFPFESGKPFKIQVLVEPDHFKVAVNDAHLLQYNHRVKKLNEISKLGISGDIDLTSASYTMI
Response line: 4.06
